Assay: Unbound plasma concentration in the PET/CT study
Format: in vivo
Conditions: human, 240 mg, Subject C240, 240 mg
Measure: concentration at 4 h (nM)
Only the number, expressed in nM, is required.

Could you share which concentration at 4 h value was measured for COCCN(CCCCc1ccc2c(n1)NCCC2)CC[C@H](Nc1ncnc2ccccc12)C(=O)O [Compound 5] ? 103

###

Recorded measurements of IC50, one per entry
Target: recombinant human integrin αvβ6 (Homo sapiens (Human), UniProt P06756+P18564)
Sequence (P06756 31-889): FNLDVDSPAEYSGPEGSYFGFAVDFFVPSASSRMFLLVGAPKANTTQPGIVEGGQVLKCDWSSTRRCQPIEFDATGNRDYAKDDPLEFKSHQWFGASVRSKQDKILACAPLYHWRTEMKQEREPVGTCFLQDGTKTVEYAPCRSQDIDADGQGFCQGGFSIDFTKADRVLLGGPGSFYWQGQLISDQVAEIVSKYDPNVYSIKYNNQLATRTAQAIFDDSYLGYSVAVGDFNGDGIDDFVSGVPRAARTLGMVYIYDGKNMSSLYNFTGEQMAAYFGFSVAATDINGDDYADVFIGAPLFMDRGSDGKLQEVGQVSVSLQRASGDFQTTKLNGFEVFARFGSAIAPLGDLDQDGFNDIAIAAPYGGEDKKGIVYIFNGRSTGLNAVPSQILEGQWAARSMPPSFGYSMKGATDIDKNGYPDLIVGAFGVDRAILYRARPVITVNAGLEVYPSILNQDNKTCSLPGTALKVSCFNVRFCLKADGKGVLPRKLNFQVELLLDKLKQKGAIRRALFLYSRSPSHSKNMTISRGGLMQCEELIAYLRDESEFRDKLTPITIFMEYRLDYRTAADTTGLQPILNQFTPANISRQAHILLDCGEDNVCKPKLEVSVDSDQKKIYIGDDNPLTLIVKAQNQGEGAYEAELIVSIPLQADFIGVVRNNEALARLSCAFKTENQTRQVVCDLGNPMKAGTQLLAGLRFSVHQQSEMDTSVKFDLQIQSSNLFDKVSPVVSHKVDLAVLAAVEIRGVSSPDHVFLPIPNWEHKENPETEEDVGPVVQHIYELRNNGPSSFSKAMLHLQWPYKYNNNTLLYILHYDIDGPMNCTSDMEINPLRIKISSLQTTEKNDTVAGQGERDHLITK
Sequence (P06756 890-992 partner): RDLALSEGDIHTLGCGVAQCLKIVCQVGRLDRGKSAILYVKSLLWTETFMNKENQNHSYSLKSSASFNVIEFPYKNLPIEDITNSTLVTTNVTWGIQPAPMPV
Sequence (P18564 22-707): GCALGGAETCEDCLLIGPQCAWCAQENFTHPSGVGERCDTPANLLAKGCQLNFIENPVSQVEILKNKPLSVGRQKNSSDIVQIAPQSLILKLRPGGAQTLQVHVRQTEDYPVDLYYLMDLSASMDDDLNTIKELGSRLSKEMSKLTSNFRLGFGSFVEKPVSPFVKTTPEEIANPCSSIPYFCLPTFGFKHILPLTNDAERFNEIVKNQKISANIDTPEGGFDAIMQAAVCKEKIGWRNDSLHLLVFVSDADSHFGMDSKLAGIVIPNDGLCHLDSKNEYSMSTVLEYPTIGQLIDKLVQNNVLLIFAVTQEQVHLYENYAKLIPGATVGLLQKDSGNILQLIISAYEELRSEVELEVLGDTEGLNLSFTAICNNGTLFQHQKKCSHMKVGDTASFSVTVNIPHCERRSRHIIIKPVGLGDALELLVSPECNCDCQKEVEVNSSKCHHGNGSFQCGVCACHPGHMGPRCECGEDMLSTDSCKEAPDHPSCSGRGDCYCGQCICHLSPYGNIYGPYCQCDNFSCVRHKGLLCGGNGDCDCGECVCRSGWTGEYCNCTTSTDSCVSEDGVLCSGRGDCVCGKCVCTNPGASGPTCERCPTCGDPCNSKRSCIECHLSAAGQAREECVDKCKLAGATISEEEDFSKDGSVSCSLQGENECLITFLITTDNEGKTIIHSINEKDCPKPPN
Assay: Solid phase integrin αvβ6 binding assay
Settings: IC50 presented in four ranges; read-out: αvβ6 Inhibition IC50 (nM) - range

Reference set (4 entries):
O=C(O)[C@H](CCN(CCCCc1ccc2c(n1)NCCC2)CCOc1cncc(F)c1)Nc1ncnc2ccccc12 :: < 50 nM
COCCN(CCCCc1ccc2c(n1)NCCC2)CC[C@H](Nc1nccc2ccccc12)C(=O)O :: > 1000 nM
O=C(O)[C@H](CCN(CCCCc1ccc2c(n1)NCCC2)CCOc1cc(F)cc(F)c1)Nc1ncnc2ccccc12 :: < 50 nM
CO[C@H](C)CN(CCCCc1ccc2c(n1)NCCC2)CCC(Nc1ncnc2ccccc12)C(=O)O (stereo partly shown) :: < 50 nM

Could you share which IC50 value was measured for `CN(C)C(=O)CN(CCCCc1ccc2c(n1)NCCC2)CC[C@H](Nc1ncc(C(F)(F)F)cn1)C(=O)O` ? 50 to 250 nM

Could you share which IC50 value was measured for `O=C(O)[C@H](CCN(CCCCc1ccc2c(n1)NCCC2)CCOCC(F)F)Nc1ncnc2ccccc12` ? < 50 nM

Could you share which IC50 value was measured for `O=C(O)[C@H](CCN(CCCCc1ccc2c(n1)NCCC2)CCOCC(F)(F)F)Nc1ncnc2cccnc12` ? < 50 nM
